# Tested on: U2OS
# MEASUREMENT PROTOCOL: cell viability relative to DMSO; higher = less toxic
# DETAILS: 72 h; 1000 nM
MEASURED QUANTITY: cell viability

Study these solved cases before continuing.
>>> recorded_value("Oc1c(I)cc(I)cc1I [AM-24]")
"97.7%"
>>> recorded_value("COC1=C[C@@H]2[C@@H]3Cc4ccc(OC)c(O)c4[C@]2(CCN3C)CC1=O [sinomenine]")
"104%"

# input Please indicate cell viability recorded for CCCCCCCCCCCCC[N+](C)(C)Cc1ccccc1 [benzalkonium]
# output 92.9%

====

Please respond with reported cell viability for every item in the list.
# System: Caco-2
# MEASUREMENT PROTOCOL: cell viability relative to DMSO; higher = less toxic
# DETAILS: 72 h; 10 nM
Give bare numbers, in %.

Study these solved cases before continuing.
>>> recorded_value("CCCCN1CCCC1CNC(=O)c1cc(C#N)c2ccccc2c1OC (configuration not stated) [nafadotride]")
97.6
>>> recorded_value("C[C@H]1C[C@H]2[C@@H]3CCC4=CC(=O)C=C[C@]4(C)[C@@]3(Cl)[C@@H](O)C[C@]2(C)[C@@]1(O)C(=O)CO")
88.6
>>> recorded_value("C[C@]12CC[C@H]3[C@@H](CC[C@]4(O)C[C@@H](O)CC[C@]34C=O)[C@@]1(O)CC[C@@H]2C1=CC(=O)OC1")
110

Below is a list of compounds. For each, state its recorded cell viability.
1. CNS(=O)(=O)Cc1ccc2[nH]cc(CCN(C)C)c2c1
2. CC1(C)CN(C(=O)c2ccc(-c3cccc4nc(NC(=O)C5CC5)nn34)cc2)C1
3. O=C(Nc1ccc(CN2CCOCC2)cc1)c1ccc(-c2cccc(Cl)c2)o1
4. Cc1cc2c(F)c(Oc3ncnn4cc(OC[C@@H](C)OC(=O)[C@H](C)N)c(C)c34)ccc2[nH]1 [brivanib-alaninate]
5. COc1ccccc1OCC(O)COC(N)=O (configuration not stated)
6. Cn1cc(C2=C(c3cn(C4CCN(Cc5ccccn5)CC4)c4ccccc34)C(=O)NC2=O)c2ccccc21

# output
96.7
99.8
102
98.5
98.4
104

====

# System: Calu-3
# MEASUREMENT PROTOCOL: cell viability relative to DMSO; higher = less toxic
# DETAILS: 72 h; 10 nM
MEASURED QUANTITY: cell viability (%)
Answers are plain numbers, in %.

Study these solved cases before continuing.
>>> recorded_value("Nc1ncnc2[nH]nc(Nc3ccc(F)cc3)c12")
101
>>> recorded_value("C[C@]12CCC(=O)C=C1CC[C@@H]1[C@@H]2[C@@H](O)C[C@@]2(C)[C@H]1CC[C@]2(O)C(=O)COP(=O)(O)O [hydrocortisone-phosphate]")
102
>>> recorded_value("C[C@@H](NC(=O)[C@@H](N)Cc1ccc(O)cc1)C(=O)NCC(=O)N(C)[C@@H](Cc1ccccc1)C(=O)N[C@H](CO)CC[S+](C)[O-] (stereo partly drawn) [FK-33-824]")
94.1
>>> recorded_value("CCCN1CCCC(c2cccc(O)c2)C1 (stereo in doubt) [preclamol]")
110
>>> recorded_value("CC1(C)OC2(C)C(O)CC1CC2O (stereo not drawn) [epomediol]")
82.6
>>> recorded_value("CN1CCN(c2nc3ccccc3nc2Cl)CC1")
105
>>> recorded_value("CN1CCc2c(c3ccccc3n2Cc2ccccc2)C1 [mebhydrolin]")
95.8
>>> recorded_value("C[C@H](O)[C@H](O)[C@H]1CNc2nc(N)[nH]c(=O)c2N1 [sapropterin]")
97
>>> recorded_value("CCC/N=C1\\S/C(=C\\c2ccc(OC[C@H](O)CO)c(Cl)c2)C(=O)N1c1ccccc1C [ponesimod]")
103
>>> recorded_value("O=C1NC(=O)[C@@]2(CCOc3ccc(F)cc32)N1 [sorbinil]")
120

Below is a list of compounds. For each, state its recorded cell viability.
1. C[N+](C)(C)CC(=O)O [betaine]
2. COC1=C[C@@H]2[C@@H]3Cc4ccc(OC)c(O)c4[C@]2(CCN3C)CC1=O [sinomenine]
3. Cc1ccc(NC(=O)c2ccc(CN3CC[C@H](N(C)C)C3)c(C(F)(F)F)c2)cc1Nc1nccc(-c2cncnc2)n1 [bafetinib]
4. COc1cc(/C=C2\CCC/C(=C\c3ccc(O)c(OC)c3)C2=O)ccc1O [cyclovalone]
5. OCCc1ccc(OCCn2ccnc2)cc1 [MR-948]
6. OC(CCN1CCCCC1)(c1ccccc1)C1CCCCC1 (stereo not drawn) [trihexyphenidyl]
7. Cc1cc(-c2nncc3c(C(C)(C)C)c(OCc4ncnn4C)nn23)no1 [MRK-016]
8. Clc1cccc(C(c2ccc3[nH]cnc3c2)n2ccnc2)c1 (stereo not drawn) [liarozole]

# output
95.8
95.4
107
100
99
98.9
111
96.1

====

# System: HepG2
# MEASUREMENT PROTOCOL: cell viability relative to DMSO; higher = less toxic
# DETAILS: 72 h; 1 nM
Please respond with reported cell viability for every item in the list.
Give bare numbers, in %.

Study these solved cases before continuing.
>>> recorded_value("CCC/N=C1\\S/C(=C\\c2ccc(OC[C@H](O)CO)c(Cl)c2)C(=O)N1c1ccccc1C")
95.8
>>> recorded_value("O=C(O)c1ccc(NC(=O)[C@H](Cc2ccc(O)cc2)NC(=O)c2ccccc2)cc1 [bentiromide]")
91.9

Please find the next compound below.
# input Please indicate cell viability recorded for `OC(CCCN1CCCCC1)(c1ccccc1)c1ccccc1`
# output 96.1

====

Please respond with reported cell viability for every item in the list.
# Tested on: Calu-3
# MEASUREMENT PROTOCOL: cell viability relative to DMSO; higher = less toxic
# DETAILS: 72 h; 1000 nM
One number for each entry, in %.

Below is a list of molecules. For each, state its recorded cell viability.
1. Cc1cc(-c2nncc3c(C(C)(C)C)c(OCc4ncnn4C)nn23)no1
2. CC1(C)CC(=O)c2c(C(F)(F)F)nn(-c3ccc(C(N)=O)c(N[C@H]4CC[C@H](OC(=O)CN)CC4)c3)c2C1
3. O=C(Nc1ccccc1C(=O)Nc1ccc(CCO)cc1)c1ccc([N+](=O)[O-])cc1
4. CN(C)C(=O)[C@H](O)[C@H](Cc1ccccc1)NC(=O)c1cc2cc(Cl)ccc2[nH]1

# output
1. 93.9
2. 40.5
3. 102
4. 102

====

Please respond with reported relative viability EC50 for every item in the list.
# Tested on: HepG2
# MEASUREMENT PROTOCOL: relative viability EC50 (midpoint between 100% and the lowest measured viability); higher = less toxic
# DETAILS: 72 h

Study these solved cases before continuing.
>>> recorded_value("Cc1cccc(C)c1NC(=O)C1CCCCN1C (stereo not drawn) [mepivacaine]")
"> 10 µM"
>>> recorded_value("N[C@@H](C(=O)N[C@@H]1C(=O)N2C(C(=O)O)=C(Cl)CS[C@H]12)c1ccccc1")
"> 10 µM"

Below is a list of molecules. For each, state its recorded relative viability EC50.
1. CC(C)=CCc1c(O)cc(O)c2c(=O)c(O)c(-c3ccc(C(F)(F)F)cc3)oc12
2. O=C1c2cccc(O)c2C(=O)c2c(O)cc(CO)cc21
3. C[C@@H](NC(=O)[C@@H](N)Cc1ccc(O)cc1)C(=O)NCC(=O)N(C)[C@@H](Cc1ccccc1)C(=O)N[C@H](CO)CC[S+](C)[O-] (stereo partly drawn)
4. CC(C)N(CCc1c[nH]c2ccccc12)C(C)C

# output
1: 3.43 µM; 2: > 10 µM; 3: > 10 µM; 4: > 10 µM

Below is a list of molecules. For each, state its recorded relative viability EC50.
1. CCCCCCCCCCC[C@@H](C[C@@H]1OC(=O)[C@H]1CCCCCC)OC(=O)[C@H](CC(C)C)NC=O
2. CN(C)CCCN1c2ccccc2Sc2ccccc21
3. Cn1ccc2cc3c(cc21)CCN3C(=O)Nc1cccnc1

# output
1: > 10 µM; 2: > 10 µM; 3: > 10 µM

Below is a list of molecules. For each, state its recorded relative viability EC50.
1. C[C@@H]1C[C@H]2[C@@H]3CCC4=CC(=O)C=C[C@]4(C)[C@@]3(F)[C@@H](O)C[C@]2(C)[C@H]1C(=O)CO
2. O=C(/C=C/c1ccc(CN(CCO)CCc2c[nH]c3ccccc23)cc1)NO
3. Cc1cc(N2CCN([C@@H]3CN[C@H](C(=O)N4CCSC4)C3)CC2)n(-c2ccccc2)n1

# output
["> 10 µM", "0.0395 µM", "> 10 µM"]

# input Please indicate relative viability EC50 recorded for OC(CCN1CCCCC1)(c1ccccc1)C1CCCCC1 (stereo not drawn)
# output > 10 µM

====

Please respond with reported cell viability for every item in the list.
# Test system: U2OS
# MEASUREMENT PROTOCOL: cell viability relative to DMSO; higher = less toxic
# DETAILS: 72 h; 10 nM
Numbers only, in %.

>>> recorded_value("CCCCCCCCCCC[C@@H](C[C@@H]1OC(=O)[C@H]1CCCCCC)OC(=O)[C@H](CC(C)C)NC=O [orlistat]")
97.2
>>> recorded_value("O=C1C[C@@]2(C(=O)N1)C(=O)N(Cc1ccc(Br)cc1F)C(=O)c1cccn12 [ranirestat]")
97.1
>>> recorded_value("CCC1(c2ccccc2)C(=O)NCNC1=O [primidone]")
98.3
>>> recorded_value("C[N+]1([O-])[C@@H]2CC[C@H]1C[C@@H](OC(=O)C(CO)c1ccccc1)C2 (some centres undefined) [atropine-oxide]")
107
>>> recorded_value("CCC(C)n1ncn(-c2ccc(N3CCN(c4ccc(OCC5COC(Cn6cncn6)(c6ccc(Cl)cc6Cl)O5)cc4)CC3)cc2)c1=O (centres undefined) [itraconazole]")
99.5
>>> recorded_value("Cc1c(Cc2ccc3ccccc3n2)c2cc(F)ccc2n1CC(=O)O")
101
>>> recorded_value("C[C@H](NCc1ccc(OCc2ccccc2F)cc1)C(N)=O [priralfinamide]")
102
>>> recorded_value("O[C@@H](CN1CCNCC1)Cn1c2ccc(Br)cc2c2cc(Br)ccc21 [BAX-channel-blocker]")
102

Please find the next molecule below.
# input Please indicate cell viability recorded for `CCOc1c2c(c(OCC)c3ccccc13)C(=O)N(c1ccc(CC(=O)NS(=O)(=O)c3ccccc3)cc1)C2`
# output 100
